Each record here notes measured self-cleavage.
B1: HDV Ribozyme (parent)
chain: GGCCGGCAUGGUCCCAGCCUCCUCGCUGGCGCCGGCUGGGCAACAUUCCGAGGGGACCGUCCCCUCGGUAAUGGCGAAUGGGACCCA

Variants of: B1
Protocol Description: self-cleavage, relative activity (ratio to wild type); higher = more cleavage; co-transcriptional
Observed Property: self-cleavage

1) GGCCGGCAUGGUCCCAGCCUCCUCGCUGGCUCUGGCUGGGCAACAUUCCGAGGGGACCGUCCCCUCGGUAAUGGCGAAUGGGACCCA : 0.125
2) GGCCGGCAUGGUCCCAGCCUCCUCGCUGGCGCCGGCUGGGCAACAUUCCGAGGGGACCGUCCCCUCGGUUAUGGCGGAUGGGACCCA : 0.665
3) GGCCGGCAUGGUCCCAGCCUCCUCGCUGGCGCCGGCUGGGCAACAUUCCGAGGGGACCGUCGCCUCGGUAAUGCCGAAUGGGACCCA : 0.172
4) GGCCGGCAUGGUCCCAGCCUCCUCGCUGGCGCCGGCUGGGCAACAUUCCGAGGUGACCGUCCCCUCGGUAAUGGCGAAUGGGACGCA : 0.888
5) GGCCGGCAUGGUCCCAGCCUCCUCGCUGGCGCCUGCUGGGCAACAUUUCGAGGGGACCGUCCCCUCGGUAAUGGCGAAUGGGACCCA : 0.112
